Origin of measurements: paper PMC7819943

Tested target: OsSMF1 (Oryza sativa, UniProt Q6ZLB0 1-436)
Sequence: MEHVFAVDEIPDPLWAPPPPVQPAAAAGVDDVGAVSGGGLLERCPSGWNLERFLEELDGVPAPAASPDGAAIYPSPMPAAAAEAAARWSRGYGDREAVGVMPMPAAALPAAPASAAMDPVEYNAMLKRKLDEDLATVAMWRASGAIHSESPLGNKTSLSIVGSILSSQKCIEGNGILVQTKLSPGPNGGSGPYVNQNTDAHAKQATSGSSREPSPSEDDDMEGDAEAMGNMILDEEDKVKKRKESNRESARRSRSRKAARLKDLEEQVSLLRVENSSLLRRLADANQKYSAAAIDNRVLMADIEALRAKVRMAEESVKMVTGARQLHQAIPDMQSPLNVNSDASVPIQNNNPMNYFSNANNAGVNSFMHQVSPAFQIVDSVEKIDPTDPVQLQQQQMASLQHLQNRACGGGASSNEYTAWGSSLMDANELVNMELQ
Experimental protocol: protein-binding microarray (RPBM); PBS, 2% BSA, 51.3 ng/ul salmon testes DNA, 50 uM zinc acetate, 200 nM TF, 25 C, 1 h; high values mean tight binding
Details: protein: recombinant; tags: N-terminal polyhistidine and DsRed monomer fusion (pET32a); chain copies: 2; label: CyDye5-dUTP incorporated in the synthesized complementary strand; 3' TTTTT single-stranded linker to array surface; dsDNA, one strand shown
Over roughly 39,000 sequences, “fluorescence intensity (a.u.)” has its median near 4,300; the highest 2% begin near 39,000. The sample as a whole holds a higher share of the highest values than the screen did.
Assay endpoint: binding signal

Fill blank: measured binding signal of the sequence ACAGGCATAGAGGCTGCTGACACACACCATCCGATCTGTCCGGAGTCACCTAGTGCAG is ____.
4990 fluorescence intensity (a.u.)

May I ask what binding signal has been recorded for GACATCTGGAGGCGTCATGCAAGATGTCACATCCATAGAACGGAGTCACCTAGTGCAG ?
3940 fluorescence intensity (a.u.)

Entry CGCCGCCTCCGCCTCCGCCTCCGCTGCTCGCCGACCGGAGCGGAGTCACCTAGTGCAG has what binding signal?
4680 fluorescence intensity (a.u.)

What does the record list as binding signal for GGTGCAGTTCATCATATGTGTTAGACTAATTGAGTAATTGCGGAGTCACCTAGTGCAG ?
36500 fluorescence intensity (a.u.)

Entry TCCCACTCGATTTGGGAGAAAATACAGGGATTAAACTCTGCGGAGTCACCTAGTGCAG has what binding signal?
3550 fluorescence intensity (a.u.)

Look up binding signal: ACAGGAATATCTCTTCGAGGGATTAAAATTCACTCCCACTCGGAGTCACCTAGTGCAG
50800 fluorescence intensity (a.u.)

For CAAATGCCACCTAAGCGCCACGTCAACCCCATAGACTAGGCGGAGTCACCTAGTGCAG , what is its reported binding signal?
34200 fluorescence intensity (a.u.)

Reported binding signal for GAGGGTTTTAATTACTCACTGACATGTAGGGTCACGGGGTCGGAGTCACCTAGTGCAG : what is it?
4390 fluorescence intensity (a.u.)

Recorded binding signal of TTCAAATGCCACCTAAGCGCCACGTCAACCCCATAGACTGCGGAGTCACCTAGTGCAG , please.
39500 fluorescence intensity (a.u.)

Name the recorded binding signal for CCTCCTCGCTGCCCAGCCACCGCCGCCCTCCCGTCCCGCGCGGAGTCACCTAGTGCAG .
3490 fluorescence intensity (a.u.)

Consider the sequence CGCCGCCTCACCAGCGCCACCTCCACCTCCACCTACGTCTCGGAGTCACCTAGTGCAG and give its measured binding signal.
3270 fluorescence intensity (a.u.)

Dear colleague, I am looking for the recorded binding signal of the following sequence: GGTCCCGTCAGGGAAGGACCCCACGTCCTCGGTTCCATTCCGGAGTCACCTAGTGCAG
3910 fluorescence intensity (a.u.)

Which binding signal value is on record for CGTCGATGGCGTGCGTGAGAGCCTCCACGCCTTGCTGCCGCGGAGTCACCTAGTGCAG ?
4660 fluorescence intensity (a.u.)

Give its binding signal value. Item: ATTGACGCGCCTCGGTATTACCTCACTAGCTGCGTCATTGCGGAGTCACCTAGTGCAG
6460 fluorescence intensity (a.u.)

So what's the measured binding signal for this one? TCCTCCCAAAGATAATTCAGCTGATGATATTTCCATATCTCGGAGTCACCTAGTGCAG
3210 fluorescence intensity (a.u.)

Endpoint output: binding signal of GGTGTCGCGTCGCGTCTGCAGTAGAAATGGAAGCCTGGGGCGGAGTCACCTAGTGCAG . Value?
3230 fluorescence intensity (a.u.)

What does the record list as binding signal for TGTGTTCTGCAATGCATAATTGCACCAGTTCTAGTACCTGCGGAGTCACCTAGTGCAG ?
45300 fluorescence intensity (a.u.)

Item under review: CATAGCCTTTTGCATATGCGTCAAGCGTCTATACGATTCGCGGAGTCACCTAGTGCAG . Reported binding signal?
3900 fluorescence intensity (a.u.)

What does the record list as binding signal for CGCTCCTCGCCGCCTTGAACCTCACAGCGAAACCTGATCACGGAGTCACCTAGTGCAG ?
3270 fluorescence intensity (a.u.)
